Target: Progesterone receptor (Oryctolagus cuniculus, UniProt P06186)
Construct: from tissue; host or cells: uterus cytosol (105,000 g supernatant) of impuberal female rabbits treated with estradiol
Sequence (P06186 1-930): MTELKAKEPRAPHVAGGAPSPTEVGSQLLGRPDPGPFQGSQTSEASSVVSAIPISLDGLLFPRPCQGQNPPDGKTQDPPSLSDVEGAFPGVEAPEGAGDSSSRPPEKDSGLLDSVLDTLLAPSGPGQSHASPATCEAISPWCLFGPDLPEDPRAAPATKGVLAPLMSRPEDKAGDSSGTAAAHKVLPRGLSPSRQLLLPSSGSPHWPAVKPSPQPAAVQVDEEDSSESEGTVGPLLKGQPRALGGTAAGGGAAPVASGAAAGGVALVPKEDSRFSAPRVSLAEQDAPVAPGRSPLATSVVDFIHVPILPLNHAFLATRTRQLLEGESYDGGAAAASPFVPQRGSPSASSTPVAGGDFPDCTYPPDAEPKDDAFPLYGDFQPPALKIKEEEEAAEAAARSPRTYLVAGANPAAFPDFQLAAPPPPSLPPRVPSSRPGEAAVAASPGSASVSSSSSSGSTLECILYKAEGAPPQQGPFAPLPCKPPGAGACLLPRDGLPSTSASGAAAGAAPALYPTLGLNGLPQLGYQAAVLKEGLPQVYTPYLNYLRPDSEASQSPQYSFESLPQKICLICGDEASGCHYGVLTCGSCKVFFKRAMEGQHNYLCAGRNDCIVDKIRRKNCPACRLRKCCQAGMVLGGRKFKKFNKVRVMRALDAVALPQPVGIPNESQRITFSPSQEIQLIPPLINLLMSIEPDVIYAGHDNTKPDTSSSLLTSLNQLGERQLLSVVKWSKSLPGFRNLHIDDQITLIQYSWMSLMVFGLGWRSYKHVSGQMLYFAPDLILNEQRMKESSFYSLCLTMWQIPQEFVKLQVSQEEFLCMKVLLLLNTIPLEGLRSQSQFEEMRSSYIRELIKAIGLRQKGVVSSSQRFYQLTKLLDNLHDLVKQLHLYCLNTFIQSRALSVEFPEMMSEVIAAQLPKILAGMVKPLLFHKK
Assay: relative bond affinity for the progesterone receptor of rabbit's uterus
Assay type: binding
Conditions: 2 hours incubation at 0° C.; tritiated R 5020 5 nM; RBA=100 (CH)/(CX), reference cold progesterone
PROPERTY MEASURED: relative bond affinity (RBA), Progesterone 2H
Just the number, please, no unit attached.

Query :: Need relative bond affinity (RBA), Progesterone 2H of CN(C)c1ccc([C@H]2C[C@@]3(C)[C@@H](CC[C@@]3(O)C#CCOC(=O)CCC(=O)O)[C@@H]3CCC4=CC(=O)CCC4=C32)cc1 , thanks.
Result :: 14

Query :: // lookup relative bond affinity (RBA), Progesterone 2H for CN(C)c1ccc([C@H]2C[C@@]3(C)[C@@H](CC[C@]3(C#CCl)OC(=O)CCC(=O)O)[C@@H]3CCC4=CC(=O)CCC4=C32)cc1
Result :: 3

Query :: Endpoint output: relative bond affinity (RBA), Progesterone 2H of CC#C[C@]1(OC(=O)CCC(=O)O)CC[C@H]2[C@@H]3CCC4=CC(=O)CCC4=C3[C@@H](c3ccc(N(C)C)cc3)C[C@@]21C [Example 6] . Value?
Result :: 2

Query :: Quick one: relative bond affinity (RBA), Progesterone 2H of CN(C)c1ccc([C@H]2C[C@@]3(C)[C@@H](CC[C@@]3(O)/C=C\COC(=O)CCC(=O)O)[C@@H]3CCC4=CC(=O)CCC4=C32)cc1 ?
Result :: 21

Query :: What value of measured relative bond affinity (RBA), Progesterone 2H is listed for CC#C[C@]1(OC(=O)CCC(=O)O)CC[C@H]2[C@@H]3CCC4=CC(=O)CCC4=C3[C@@H](c3ccc(N(C)C)cc3)C[C@@]21C [Example 5] ?
Result :: 2
